subject of test: Alpha-1A adrenergic receptor (Homo sapiens, UniProt P35348)
Sequence (P35348 whole entry): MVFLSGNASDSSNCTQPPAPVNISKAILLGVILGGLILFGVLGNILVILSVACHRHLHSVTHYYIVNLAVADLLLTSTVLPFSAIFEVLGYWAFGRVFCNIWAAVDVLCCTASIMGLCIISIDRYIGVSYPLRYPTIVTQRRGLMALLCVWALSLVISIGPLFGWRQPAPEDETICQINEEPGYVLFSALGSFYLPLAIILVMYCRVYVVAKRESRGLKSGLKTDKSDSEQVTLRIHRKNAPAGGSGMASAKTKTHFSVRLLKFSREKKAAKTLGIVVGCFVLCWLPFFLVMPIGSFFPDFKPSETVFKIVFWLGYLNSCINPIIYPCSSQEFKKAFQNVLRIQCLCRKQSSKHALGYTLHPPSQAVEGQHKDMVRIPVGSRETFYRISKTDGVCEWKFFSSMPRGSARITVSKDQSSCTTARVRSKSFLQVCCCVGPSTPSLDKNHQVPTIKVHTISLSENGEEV
test description: Antagonist activity at alpha 1A adrenergic receptor (unknown origin) by luciferase reporter gene assay
Please go through the items and note down their log10 IC50.
Please note: log10 values; quantity IC50; unit nM.

Asked: What value of log10 IC50 has been recorded for this entry: Cc1cccc(N2CCN(CCc3ccc(COc4ccc5c(c4)CCCC5)cc3)CC2)c1.Cl.Cl
Given back: 2.70

Asked: Here is the next compound: COc1ccc(N2CCN(CCc3ccc(COc4ccc5c(c4)CCCC5)cc3)CC2)cc1.Cl.Cl
Given back: 1.76

Asked: Item: Cl.Cl.Fc1ccc(N2CCN(CCc3ccc(COc4ccc5c(c4)CCCC5)cc3)CC2)cc1
Given back: 3.03

Asked: Another compound to look at: Cl.c1ccc(C2CCN(CCc3ccc(COc4ccc5c(c4)CCCC5)cc3)CC2)cc1
Given back: 2.75

Asked: How about this compound: Cl.Cl.Clc1cccc(N2CCN(CCc3ccc(COc4ccc5c(c4)CCCC5)cc3)CC2)c1
Given back: 3.08

---

subject of test: Alpha-1B adrenergic receptor (Homo sapiens)
Sequence (P35368 whole entry): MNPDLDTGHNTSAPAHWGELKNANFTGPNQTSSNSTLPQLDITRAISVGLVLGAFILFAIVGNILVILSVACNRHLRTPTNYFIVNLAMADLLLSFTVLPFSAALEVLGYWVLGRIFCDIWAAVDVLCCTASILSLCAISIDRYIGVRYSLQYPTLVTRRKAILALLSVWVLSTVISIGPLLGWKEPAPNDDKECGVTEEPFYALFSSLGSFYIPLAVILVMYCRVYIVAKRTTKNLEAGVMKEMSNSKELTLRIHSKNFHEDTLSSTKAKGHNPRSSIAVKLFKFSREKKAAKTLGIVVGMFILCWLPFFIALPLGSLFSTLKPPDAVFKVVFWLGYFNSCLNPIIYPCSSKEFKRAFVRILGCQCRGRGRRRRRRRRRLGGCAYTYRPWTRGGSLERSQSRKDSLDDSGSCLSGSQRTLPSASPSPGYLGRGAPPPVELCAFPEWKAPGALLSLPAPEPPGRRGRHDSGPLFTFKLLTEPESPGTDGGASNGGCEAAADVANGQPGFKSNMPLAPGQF
test description: Antagonist activity at alpha 1B adrenergic receptor (unknown origin) by luciferase reporter gene assay
readout kind: pIC50
Answer as the number alone; pIC50 is minus log10 of concentration in mol/L.

Asked: Any idea what its pIC50 is? The compound is Cc1cccc(N2CCN(CCc3ccc(COc4ccc5c(c4)CCCC5)cc3)CC2)c1.Cl.Cl
Given back: 6.23

Asked: Now this one: Cl.Cl.Fc1ccc(N2CCN(CCc3ccc(COc4ccc5c(c4)CCCC5)cc3)CC2)cc1
Given back: 5.95

Asked: What do we get for Cl.Cl.Clc1cccc(N2CCN(CCc3ccc(COc4ccc5c(c4)CCCC5)cc3)CC2)c1 ?
Given back: 6.00

Asked: Follow-up item: Cl.c1ccc(C2CCN(CCc3ccc(COc4ccc5c(c4)CCCC5)cc3)CC2)cc1
Given back: 6.17

Asked: Follow-up entry: COc1ccc(N2CCN(CCc3ccc(COc4ccc5c(c4)CCCC5)cc3)CC2)cc1.Cl.Cl
Given back: 6.01

---

Tested on: DU-145
test description: Potency index, ratio of naftopidil IC50 to compound IC50 for human DU145 cells
Type: functional
For each of the compounds below, state its Ratio IC50.
Please give only the number in your answer, with no unit.

Asked: Checklist item: Ratio IC50 tested on DU-145, entry COc1ccc(N2CCN(CCc3ccc(COc4ccc5c(c4)CCCC5)cc3)CC2)cc1.Cl.Cl , value?
Given back: 37

Asked: Now give it for Cl.Cl.Fc1ccc(N2CCN(CCc3ccc(COc4ccc5c(c4)CCCC5)cc3)CC2)cc1 too.
Given back: 38

Asked: Request: Cl.Cl.Clc1cccc(N2CCN(CCc3ccc(COc4ccc5c(c4)CCCC5)cc3)CC2)c1
Given back: 40

Asked: Then this compound: Cc1cccc(N2CCN(CCc3ccc(COc4ccc5c(c4)CCCC5)cc3)CC2)c1.Cl.Cl
Given back: 41

Asked: Cool, now Cl.c1ccc(C2CCN(CCc3ccc(COc4ccc5c(c4)CCCC5)cc3)CC2)cc1
Given back: 36

---

System: DU-145
test description: Cytotoxicity against human DU145 cells assessed as growth inhibition after 24 hrs by CCK8 assay
Format: functional, cell-based
experimental parameters: DU-145, 24 h
pIC50: −log10 of the molar value.
Each entry gets not fulfilled if its pIC50 stays under 5, and fulfilled if its pIC50 is 5 or above.

Asked: Reported pIC50 at or above 5? COc1cccc(N2CCN(CCc3ccc(COc4ccc5c(c4)CCCC5)cc3)CC2)c1
Given back: not fulfilled

Asked: Param item: COc1ccccc1N1CCN(CCc2ccc(COc3ccc4c(c3)CCCC4)cc2)CC1
Given back: fulfilled

Asked: Also COc1ccc(N2CCN(CCc3ccc(COc4ccc5c(c4)CCCC5)cc3)CC2)cc1.Cl.Cl , if possible.
Given back: fulfilled

Asked: What would you report for c1ccc(N2CCN(CCc3ccc(COc4ccc5c(c4)CCCC5)cc3)CC2)cc1 ?
Given back: not fulfilled

Asked: Repeat with COc1ccc(Cl)cc1N1CCN(CCc2ccc(COc3ccc4c(c3)CCCC4)cc2)CC1
Given back: not fulfilled

Asked: Also, OC1(c2ccccc2)CCN(CCc2ccc(COc3ccc4c(c3)CCCC4)cc2)CC1 please.
Given back: fulfilled

Asked: Request: Cl.c1ccc(C2CCN(CCc3ccc(COc4ccc5c(c4)CCCC5)cc3)CC2)cc1
Given back: fulfilled

Asked: Repeat for the following compound: Fc1ccccc1N1CCN(CCc2ccc(COc3ccc4c(c3)CCCC4)cc2)CC1
Given back: not fulfilled

Asked: Input Clc1ccc(N2CCN(CCc3ccc(COc4ccc5c(c4)CCCC5)cc3)CC2)cc1
Given back: not fulfilled

Asked: Please do the same for Cc1ccc(Cl)cc1N1CCN(CCc2ccc(COc3ccc4c(c3)CCCC4)cc2)CC1 as well.
Given back: not fulfilled

Asked: Field entry: FC(F)(F)c1ccccc1N1CCN(CCc2ccc(COc3ccc4c(c3)CCCC4)cc2)CC1
Given back: not fulfilled

Asked: Please give the result for Cc1cccc(N2CCN(CCc3ccc(COc4ccc5c(c4)CCCC5)cc3)CC2)c1.Cl.Cl too.
Given back: fulfilled

Asked: Lookup Clc1cccc(N2CCN(CCc3ccc(COc4ccc5c(c4)CCCC5)cc3)CC2)c1Cl
Given back: not fulfilled

Asked: Query Brc1ccc(N2CCN(CCc3ccc(COc4ccc5c(c4)CCCC5)cc3)CC2)cc1 next
Given back: not fulfilled

Asked: Next compound: N#Cc1ccccc1N1CCN(CCc2ccc(COc3ccc4c(c3)CCCC4)cc2)CC1
Given back: not fulfilled

Asked: Moving on to the next compound: Cc1ccccc1N1CCN(CCc2ccc(COc3ccc4c(c3)CCCC4)cc2)CC1
Given back: not fulfilled
